# relative viability listing for each entry below
Tested on: LXF-289
Test: relative viability (nuclei count vs DMSO), 5 days (fraction); higher = more cells survive
Conditions: first compound 0.8 µM
Number, no unit, nothing else.

// solved cases for relative viability follow
>>> numeric_readout("O=c1[nH]c2ccccc2n1C1CCN(CCCC(c2ccc(F)cc2)c2ccc(F)cc2)CC1 [Pimozide] + O=C(c1cc(Cc2n[nH]c(=O)c3ccccc23)ccc1F)N1CCN(C(=O)C2CC2)CC1 [Olaparib] (partner 8 µM)")
1.01
>>> numeric_readout("O=c1[nH]c2ccccc2n1C1CCN(CCCC(c2ccc(F)cc2)c2ccc(F)cc2)CC1 [Pimozide] + COc1cc2c(Oc3ccc(NC(=O)C4(C(=O)Nc5ccc(F)cc5)CC4)cc3F)ccnc2cc1OCCCN1CCOCC1 [Foretinib] (partner 0.25 µM)")
0.944
>>> numeric_readout("O=c1[nH]c2ccccc2n1C1CCN(CCCC(c2ccc(F)cc2)c2ccc(F)cc2)CC1 [Pimozide] + Nc1ncn([C@H]2C[C@H](O)[C@@H](CO)O2)c(=O)n1 [Decitabine] (partner 2 µM)")
0.324
>>> numeric_readout("Cc1cnc(-c2cnc(NCCNc3ccc(C#N)cn3)nc2-c2ccc(Cl)cc2Cl)[nH]1 + COc1cc2c(Oc3ccc(NC(=O)C4(C(=O)Nc5ccc(F)cc5)CC4)cc3F)ccnc2cc1OCCCN1CCOCC1 [Foretinib] (partner 0.25 µM)")
0.994

Name the recorded relative viability for Cc1cnc(-c2cnc(NCCNc3ccc(C#N)cn3)nc2-c2ccc(Cl)cc2Cl)[nH]1 + N=C(N)NC(=N)NCCc1ccccc1 [Phenformin] (partner 250 µM) . 0.536

Item: Cc1cnc(-c2cnc(NCCNc3ccc(C#N)cn3)nc2-c2ccc(Cl)cc2Cl)[nH]1 + Cc1nc(Nc2ncc(C(=O)Nc3c(C)cccc3Cl)s2)cc(N2CCN(CCO)CC2)n1 [Dasatinib] (partner 0.075 µM) 0.189

###

System: NCI-H23
Test: relative viability (nuclei count vs DMSO), 5 days (fraction); higher = more cells survive
Conditions: first compound 0.002 µM
Property measured: relative viability
Form: value (number only, do not type unit).

For CC(=O)O[C@@]12CO[C@@H]1C[C@H](O)[C@@]1(C)C(=O)[C@H](O)C3=C(C)[C@@H](OC(=O)[C@H](O)[C@@H](NC(=O)OC(C)(C)C)c4ccccc4)C[C@@](O)([C@@H](OC(=O)c4ccccc4)[C@H]21)C3(C)C [Docetaxel] + CC1(C)CCC(c2ccc(Cl)cc2)=C(CN2CCN(c3ccc(C(=O)NS(=O)(=O)c4ccc(N[C@H](CCN5CCOCC5)CSc5ccccc5)c(S(=O)(=O)C(F)(F)F)c4)cc3)CC2)C1 [Navitoclax] (partner 0.5 µM) , what is its reported relative viability? 0.514

###

System: HCC-827
Assay: relative viability (nuclei count vs DMSO), 5 days (fraction); higher = more cells survive
Conditions: first compound 0.01581 µM
Property measured: relative viability
// return a plain number; no unit text

>>> numeric_readout("COc1cc2nccc(Oc3ccc(NC(=O)Nc4cc(C)on4)c(Cl)c3)c2cc1OC [Tivozanib] + CC(C)C[C@H](NC(=O)[C@H](Cc1ccccc1)NC(=O)c1cnccn1)B(O)O [Bortezomib] (partner 0.002 µM)")
1.01

// fetch HCC-827 relative viability for Nc1ccn([C@@H]2O[C@H](CO)[C@@H](O)[C@@H]2O)c(=O)n1 [Cytarabine] + Cc1nc(NC(=O)N2CCC[C@H]2C(N)=O)sc1-c1ccnc(C(C)(C)C(F)(F)F)c1 [Alpelisib] (partner 2 µM) 0.448

Same question, Nc1ccn([C@@H]2O[C@H](CO)[C@@H](O)[C@@H]2O)c(=O)n1 [Cytarabine] + C[C@]1(O)C[C@@H](c2nc(-c3ccc4ccc(-c5ccccc5)nc4c3)c3c(N)nccn32)C1 [Linsitinib] (partner 1 µM) this time 0.604

// same read-out, input: Nc1ccn([C@@H]2O[C@H](CO)[C@@H](O)[C@@H]2O)c(=O)n1 [Cytarabine] + NC(=O)Nc1cc(-c2cccc(F)c2)sc1C(=O)N[C@H]1CCCNC1 [AZD7762] (partner 0.2 µM) 0.168

Similarly, Nc1ccn([C@@H]2O[C@H](CO)[C@@H](O)[C@@H]2O)c(=O)n1 [Cytarabine] + Nc1ncn([C@H]2C[C@H](O)[C@@H](CO)O2)c(=O)n1 [Decitabine] (partner 2 µM) ? 0.239
